assay: Saturation solubility in excipients; type: physicochemical; conditions: citric acid/sodium citrate buffer, 25 °C, pH 5, aqueous buffer, thermodynamic from solid, Citric Acid/Sodium Citrate (pH 5); read-out: saturation solubility at 25° C. (free base)
reportedEndpoint: solubility
Field: value (include unit after the number)

# get_value(readout='solubility', item= N=C(N)NCCCCC(=O)Nc1cc(C(F)(F)F)cc(NC(=O)c2cc(C(=O)Nc3cc(C(F)(F)F)cc(NC(=O)CCCCNC(=N)N)c3O[C@H]3CCNC3)ncn2)c1O[C@H]1CCNC1 [Compound A] )
12.1 mg/mL

###

experiment: Saturation solubility in excipients; assay type: physicochemical; conditions: 30% w/v glycerin in purified water, 25 °C, aqueous with cosolvent or surfactant or cyclodextrin, thermodynamic from solid, 30% w/v glycerin in purified water; read-out: saturation solubility at 25° C. (free base)
reportedEndpoint: solubility (mg/mL)
Record the value in mg/mL, omitting the unit from your answer.

# get_value(readout='solubility', item= N=C(N)NCCCCC(=O)Nc1cc(C(F)(F)F)cc(NC(=O)c2cc(C(=O)Nc3cc(C(F)(F)F)cc(NC(=O)CCCCNC(=N)N)c3O[C@H]3CCNC3)ncn2)c1O[C@H]1CCNC1 )
63.1

###

experiment: Saturation solubility in excipients; format: physicochemical; conditions: ethanol, 25 °C, organic solvent or mixture, thermodynamic from solid, Ethanol; read-out: saturation solubility at 25° C. (free base)
reportedEndpoint: solubility
Field: value (include unit after the number)

# get_value(readout='solubility', item= N=C(N)NCCCCC(=O)Nc1cc(C(F)(F)F)cc(NC(=O)c2cc(C(=O)Nc3cc(C(F)(F)F)cc(NC(=O)CCCCNC(=N)N)c3O[C@H]3CCNC3)ncn2)c1O[C@H]1CCNC1 )
1.13 mg/mL

This collection of values is drawn from patent US8278309B2.
